- System: M14 melanoma
- protocol: NCI-60 one-dose screen, 48 h (100 = growth as untreated, 0 = no growth, -100 = all killed)
- run.parameters: 10 µM unless noted
About 83,000 compounds went through this panel and 20% of them were active in at least one assay; those are over-represented in the sample as a whole. Active and inactive are the calls of the source. The calls were made as follows: active = growth percent below 10; inactive = the rest.
Consider the following compounds and their measured growth readings.

Reference set, count: 4
C#CCOc1ccc2ncnc(N3CCN(C(=O)CCl)CC3)c2c1: 61.7% [8.25 µM] (inactive)
Cc1nc2ccccc2n1C(=O)C[C@@H]1NC(=S)NC1=O: 89.3% (inactive)
CC1(C)CC[C@]2(C(=O)Nc3ccccn3)CC[C@]3(C)C(=CC[C@@H]4[C@@]5(C)C/C(=C/c6cccnc6)C(=O)C(C)(C)[C@@H]5CC[C@]43C)[C@H]2C1: 35.6% (inactive)
O=C1Nc2ccc(Br)cc2C12Oc1ccccc1C1CC(c3ccc(F)cc3)=NN12 (stereo not given): 103% (inactive)

Next, consider the following compound.
Problem: Which value of growth has been reported for COc1ccccc1Nc1nc(-c2cc3cccc(C(F)(F)F)c3oc2=O)cs1 in the records?
Solution: 13.5% (inactive)
